- System: M1 muscarinic receptor (Homo sapiens)
- Construct: expressed in transfected cells; host or cells: CHO (M1-CHO)
- Sequence (P11229 1-460): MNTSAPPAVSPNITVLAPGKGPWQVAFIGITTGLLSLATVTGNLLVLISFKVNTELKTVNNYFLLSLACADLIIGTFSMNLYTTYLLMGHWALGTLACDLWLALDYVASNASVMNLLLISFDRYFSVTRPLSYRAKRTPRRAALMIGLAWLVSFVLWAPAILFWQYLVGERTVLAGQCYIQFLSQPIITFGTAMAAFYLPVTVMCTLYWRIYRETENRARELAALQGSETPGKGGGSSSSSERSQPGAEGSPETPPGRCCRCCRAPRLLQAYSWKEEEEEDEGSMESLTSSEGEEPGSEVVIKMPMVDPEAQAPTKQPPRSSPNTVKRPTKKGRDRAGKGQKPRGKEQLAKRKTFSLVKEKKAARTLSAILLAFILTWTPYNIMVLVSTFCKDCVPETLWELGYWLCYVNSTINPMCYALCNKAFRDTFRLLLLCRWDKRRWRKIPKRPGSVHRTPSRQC
- Protocol Details: Functional mobilization of intracellular calcium (FLIPR) in CHO cells expressing M1
- Type: cell-based
- Details: CHO; 100% efficacy = maximum response obtained with the Carbachol control
Readout Name: Emax

compound="CC(=O)NC1CCC2(CCN(C(=O)OC(C)(C)C)CC2)c2ccccc21 (stereo not shown)" system="M1 muscarinic receptor (Homo sapiens)" reported_measurement="< 25%"
compound=CC(C)(C)CCN1CCC2(CC[C@H](NC(=O)[C@H]3CCC(=O)N3)c3ccc(F)cc32)CC1 system="M1 muscarinic receptor (Homo sapiens)" reported_measurement="25 to 100%"
compound=CC(=O)N[C@H]1CC2(CCN(CC(=O)NCC(C)C)CC2)c2ccccc21 system="M1 muscarinic receptor (Homo sapiens)" reported_measurement="< 25%"
compound=CC(=O)N1CCC(C(=O)N[C@H]2CCC3(CCN(CCC(C)(C)C)CC3)c3ccccc32)CC1 system="M1 muscarinic receptor (Homo sapiens)" reported_measurement="25 to 100%"
compound=CCN(C(=O)CCNC(C)=O)[C@H]1CCC2(CCN(CCC(C)(C)C)CC2)c2ccccc21 system="M1 muscarinic receptor (Homo sapiens)" reported_measurement="25 to 100%"
compound=CCC(=O)N[C@H]1CC2(CCN(CCC(C)C)CC2)c2ccccc21 system="M1 muscarinic receptor (Homo sapiens)" reported_measurement="< 25%"
compound=Cc1cc(C(=O)N[C@@H]2CCC3(CCN(CCC(C)(C)C)CC3)c3ccccc32)nn1C system="M1 muscarinic receptor (Homo sapiens)" reported_measurement="25 to 100%"
compound=CC(C)(C)CCN1CCC2(CC[C@@H](NC(=O)C3CCOCC3)c3ccc(F)cc32)CC1 system="M1 muscarinic receptor (Homo sapiens)" reported_measurement="25 to 100%"
compound=CCN(C(C)=O)[C@H]1CCC2(CCN(CCC(C)C)CC2)c2ccccc21 system="M1 muscarinic receptor (Homo sapiens)" reported_measurement="25 to 100%"
compound=CC(=O)N[C@H]1CC2(CCN(CCC(C)(C)C)CC2)c2ccccc21 system="M1 muscarinic receptor (Homo sapiens)" reported_measurement="25 to 100%"
compound=C[C@H](N[C@H]1CC2(CCN(C(=O)OC(C)(C)C)CC2)c2ccccc21)c1ccccc1 system="M1 muscarinic receptor (Homo sapiens)" reported_measurement="< 25%"
compound=CC(=O)N[C@H]1CCC2(CCN(CCCC(F)(F)F)CC2)c2ccccc21 system="M1 muscarinic receptor (Homo sapiens)" reported_measurement="25 to 100%"
compound="CC(=O)N[C@H]1CCC2(CCN(C(C)CC(C)(C)C)CC2)c2ccccc21 (stereo partly shown)" system="M1 muscarinic receptor (Homo sapiens)" reported_measurement="25 to 100%"
compound=CC(C)(C)CCN1CCC2(CC1)C[C@H](NC(=O)N1CCCC1)c1ccccc12 system="M1 muscarinic receptor (Homo sapiens)" reported_measurement="< 25%"
compound=CN(C)C(=O)N[C@H]1CC2(CCN(CCC(C)(C)C)CC2)c2ccccc21 system="M1 muscarinic receptor (Homo sapiens)" reported_measurement="< 25%"
compound=CC(=O)N[C@H]1CCC2(CCN(CCC(C)(C)C)CC2)c2ccccc21 system="M1 muscarinic receptor (Homo sapiens)" reported_measurement="25 to 100%"

The reported numbers originate from patent US8003660B2.
